Data provenance: patent US20240092779A1

- experimentalDetails: Liver microsomal stability (HLM)
- Assay type: in vitro ADME
- experimentalConditions: human, liver microsomes, human liver microsomes 0.5 mg/mL, 1 μM compound, NADPH
endpoint: microsomal CLint at 1 μM

COc1cc(Cn2c(=O)cnc3cnc(-c4c(OC)ncnc4C4CC4)nc32)ccc1-c1nc(C(F)(F)F)cn1C1CC1 ... 10 to 50 µL/min/mg
COc1cc(Cn2c(=O)cnc3cnc(-c4c(OC)ncnc4C4CC4)nc32)cc(F)c1-c1nc(C(F)(F)F)cn1C(C)C ... < 10 µL/min/mg

Proceeding to the next molecule to report its microsomal CLint at 1 μM.
Query: Need microsomal CLint at 1 μM of `COc1ncnc(C2CC2)c1-c1ncc2cc(-c3cnn(C4CN(C)C4)c3)c(=O)n(Cc3ccc(-c4nc(C(F)(F)F)cn4C4CC4)cc3)c2n1` , thanks.
Reply: 10 to 50 µL/min/mg
